- Read-out: Cytochrome P450 3A7 (Homo sapiens)
- Test Protocol: LTEA_HepaRG_CYP3A7: Life Technologies and Expression Analysis (LTEA) Assay for CYP3A7 using HepaRG (AID 2283492)
- Reported Conditions: mRNA level, 48 h; actives raise or lower the signal
Activity calls are given as the source filed them. Rule for the calls: active = hit-call score of the fitted dose curve at least 0.9, where 1 is the maximum; inactive = score below 0.9.
Your answer must be one of the following: active, inactive

Asked: Short answer needed: outcome of this test for OC(c1ccc(Cl)cc1)(c1ccc(Cl)cc1)C(Cl)(Cl)Cl ?
Given back: active

Asked: Outcome? CCNC(=O)NC(=O)C(C#N)=NOC
Given back: inactive

Asked: Hi team, can someone confirm the assay call for Cn1c(-c2ccccc2)cc(-c2ccccc2)[n+]1C ?
Given back: active

Asked: Give the logged outcome of this assay for the following compound: O=C(O)c1c(Cl)ccc2cc(Cl)cnc12
Given back: inactive

Asked: Recorded test call requested for CCN(CC)c1nc(C)cc(OP(=S)(OC)OC)n1
Given back: active

Asked: Which outcome was assigned to CCN(CC)C(=O)C(C)Oc1cccc2ccccc12 (stereo not given) in this test?
Given back: active

Asked: What is the recorded call for this compound in the test? COP(=S)(OC)Oc1ccc([N+](=O)[O-])c(C)c1
Given back: inactive

Asked: Would you mind telling me which call this test gave COc1cc(OC)nc(NC(=O)NS(=O)(=O)c2ncccc2OCC(F)(F)F)n1 ?
Given back: inactive

Asked: For this compound, state the assay outcome: CC(C)N1C(=O)N(c2ccccc2)CSC1=NC(C)(C)C
Given back: inactive

Asked: Record request — test call for COC(=O)NS(=O)(=O)c1ccc(N)cc1
Given back: inactive
